Give measured glycan array binding signal (z-score) for each item. Keep answers brief.
target: GlcNAc(b1-4)GlcNAc(b1-4)GlcNAc(b1-4)GlcNAc(b1-4)GlcNAc; experiment: glycan array binding signal (z-score within array); higher = stronger binding; conditions: glycan notation: IUPAC condensed, linker removed
Shown is part of a subset that was picked to be rich in the strongest signals.
Answers are plain numbers.

binder: LlpA (Arthrobacter sp) (protein) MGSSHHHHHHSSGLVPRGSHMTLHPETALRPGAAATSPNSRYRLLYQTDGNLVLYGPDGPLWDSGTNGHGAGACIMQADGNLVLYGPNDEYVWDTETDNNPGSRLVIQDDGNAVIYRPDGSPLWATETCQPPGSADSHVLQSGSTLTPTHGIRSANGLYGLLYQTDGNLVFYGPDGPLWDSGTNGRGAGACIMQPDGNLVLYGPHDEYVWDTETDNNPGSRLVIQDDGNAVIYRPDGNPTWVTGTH
glycan array binding signal (z-score): 0.068

Turning to the following binder.
Short answer for CCL2 (Coprinopsis cinerea), B3GA02 (protein) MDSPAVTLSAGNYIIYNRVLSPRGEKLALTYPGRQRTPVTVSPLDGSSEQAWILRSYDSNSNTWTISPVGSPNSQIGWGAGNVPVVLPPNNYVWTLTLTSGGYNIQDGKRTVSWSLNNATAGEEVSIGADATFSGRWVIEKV : glycan array binding signal (z-score) was -0.255
